The values you see were collected from paper PMC8074105.

# study_system: T1, PcrA (Bacillus subtilis, UniProt O34580 1-739)
# T1 sequence: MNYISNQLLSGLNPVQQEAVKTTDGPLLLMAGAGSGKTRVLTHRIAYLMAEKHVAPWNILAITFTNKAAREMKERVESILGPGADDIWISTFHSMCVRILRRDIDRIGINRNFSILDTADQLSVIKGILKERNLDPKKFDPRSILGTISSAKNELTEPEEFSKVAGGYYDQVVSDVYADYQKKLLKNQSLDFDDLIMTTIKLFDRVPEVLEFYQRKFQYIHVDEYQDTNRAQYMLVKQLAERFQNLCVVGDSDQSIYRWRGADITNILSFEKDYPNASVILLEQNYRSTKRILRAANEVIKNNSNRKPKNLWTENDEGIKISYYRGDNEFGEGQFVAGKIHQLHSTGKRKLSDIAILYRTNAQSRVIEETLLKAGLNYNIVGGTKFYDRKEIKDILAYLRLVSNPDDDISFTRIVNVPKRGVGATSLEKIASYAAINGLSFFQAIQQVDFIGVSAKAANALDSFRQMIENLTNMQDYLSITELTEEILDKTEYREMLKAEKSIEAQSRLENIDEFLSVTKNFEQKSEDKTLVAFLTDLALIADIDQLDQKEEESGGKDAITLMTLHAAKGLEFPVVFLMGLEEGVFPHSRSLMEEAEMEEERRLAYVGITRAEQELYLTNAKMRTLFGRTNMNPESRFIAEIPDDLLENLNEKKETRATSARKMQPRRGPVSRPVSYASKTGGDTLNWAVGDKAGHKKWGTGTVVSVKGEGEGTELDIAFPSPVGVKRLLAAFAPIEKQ
# experiment_description: EMSA; 2.5 mM ATPgS, 3 mM Mg2+; apparent; unstable complexes; 20 mM Tris-HCl pH 7.5, 50 mM NaCl, 3 mM MgCl2, 4 mM DTT, 0.05 mg/mL BSA, 5% glycerol, 2.5 mM ATPgS, 0.1 nM 32P-labelled nucleic acid, 15 min, 37 C
# experimental_conditions: protein: recombinant; tags: His6 removed (TAGZyme); label: 32P
pKd: −log10 of the molar value.
observable: pKd

Documented pKd of GCUCUGAUGCCGCAUAGUUAAGCCAGCCCCGACACCCG (ssRNA) [38-nt RNA (SM44R)] : ~7.46
